Each record here notes measured Octet response of Ab2.
# measured.on: T1, Recombinant mouse DDR2 ECD-Fc (R&D systems, Cat. No. 7479-DR-050) (mouse, UniProt Q62371 22-399, biotinylated)
# T1 construct: Bought protein; not shown: Fc part of the bought fusion protein, not described
# T1 sequence: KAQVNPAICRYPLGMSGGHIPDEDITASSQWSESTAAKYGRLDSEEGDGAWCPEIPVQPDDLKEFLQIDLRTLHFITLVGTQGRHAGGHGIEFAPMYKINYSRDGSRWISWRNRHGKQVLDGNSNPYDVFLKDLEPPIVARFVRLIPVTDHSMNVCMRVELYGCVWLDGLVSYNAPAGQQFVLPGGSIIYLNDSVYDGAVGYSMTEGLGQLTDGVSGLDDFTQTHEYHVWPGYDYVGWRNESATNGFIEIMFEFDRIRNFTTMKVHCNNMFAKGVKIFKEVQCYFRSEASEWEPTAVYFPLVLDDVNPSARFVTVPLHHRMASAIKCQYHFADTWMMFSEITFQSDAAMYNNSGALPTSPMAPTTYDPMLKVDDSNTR
# assay.overview: Octet tandem binning on captured mouse DDR2 ECD-Fc; competitor Ab1 (bound first) DAB0065
Please reply with the value in numeric form only.

DAB0065 (antibody, V domains shown, Variable regions from immunized rabbits) VH: QSVEESGGRLVTPGTPLTLTCTVSGFSLSTSAMSWVRQAPGKGLEWIGMITYGGSGSTWYASWANGRFTISKTSTTVTLKMTSPTTEDTASYFCARVYGTIGSNFYSIYSFNLWGQGTLVTVSS VL: AAVLTQTPSPVSAAVGGTVSISCQSSKSVYNSNYLSWYQQKPGQPPKLLIYYTSALASGVSSRFKGSGSGTRFTLTISDVQCDDAATYYCAGGYSSSSDNGFGGGTKVEIK : 0

# context switch: different binder, same Octet response of Ab2
Give the value of Octet response of Ab2 reported for the following: DAB0094 (antibody, V domains shown, Variable regions from immunized rabbits) VH: QSVEESGGRLVTPGTPLTLTCTVSGFSLSSYSVAWVRQAPGKGLEWIGYISYSGSTYYASWVNGRFTISKTSTTVDLKMTSLTASDTATYFCARDPGYSRDLWGQGTLVTVSS VL: DVVMTQTPSSVSEPVGGTVTIKCQASQSIGSYLSWYQQKPGQPPKLLIYRASTLASGVSSRFKGSGSGTEFTLTINGLECADAAIYYCQSSYVGVSHGSFGGGTKVEIK
1.37
